Tested on: IGROV1 ovarian
Experiment: NCI-60 one-dose screen, 48 h (100 = growth as untreated, 0 = no growth, -100 = all killed)
Details: 10 µM unless noted
Procedure: Growth inhibition of the IGROV1 human tumor cell line is measured as a screen for anti-cancer activity. Cells are grown in 96 well plates and exposed to the test compound for 48 hours. Compounds are tested at a single concentration, which is 10^-5 M for most compounds. The reported endpoint is percent growth (GI% or GIPRCNT), where numbers from 0 - 100% represent growth inhibition, and numbers from -100% - 0 represent cell death. For example, a value of 40 represents 60% growth inhibition. […]
The panel holds about 83,000 compounds, 20% with a hit somewhere; the sample as a whole holds those more often.
MEASURED_PROPERTY: growth (%)
Number in %, nothing else.

INSERT INTO assay_data (compound, measured_property, assay_result) VALUES
  ('Clc1ccc(C2=Nn3c(nnc3-c3cc(Cl)cc(Cl)c3Cl)SC2)cc1', 'growth', 22.7),
  ('COc1ccc(C2=NN3C(C2)c2cc(Br)ccc2OC3c2ccncc2)cc1 (stereo not given)', 'growth', 48.9),
  ('C[C@H]1c2ccccc2CN1CCCOc1cc2c(cc1OCC1CC1)C1(CCCC1)C(N)=N2', 'growth', 54.8),
  ('COc1ccc(NC(=O)c2ccc(NC3=C(c4ccc(Cl)cc4)C(=O)NC3=O)cc2)cc1', 'growth', 92.8),
  ('CC(=O)[C@H]1CC[C@]2(C)[C@@H]1CC[C@@H]1[C@@]3(C)C/C(=C/c4cccnc4)C(=O)C(C)(C)[C@@H]3CC[C@]12C', 'growth', 93.4);

INPUT: Name the reported growth value associated with the compound COc1ccc(Nc2nccc(Nc3ccc4[nH]ncc4c3)n2)cc1
OUTPUT: 50.6

INPUT: Please answer likewise for Cc1nc2c(c(-c3ccccc3)n1)Cc1c(ccc3ccccc13)O2
OUTPUT: 118

INPUT: Please answer likewise for N#Cc1c(-c2ccc(F)cc2)cc(-c2cccc(Cl)c2)[nH]c1=O
OUTPUT: 62.8

INPUT: Please answer likewise for CC(C)CCc1nc2ccc(NCc3ccc(OCCN4CCC(C)CC4)cc3)cc2[nH]1
OUTPUT: 79.3

INPUT: Please answer likewise for O=C1C(c2c(O)[nH]c3ncccc23)=Nc2ccccc21
OUTPUT: -40.9

###

Test system: NCI-H23 lung
Assay: NCI-60 one-dose screen, 48 h (100 = growth as untreated, 0 = no growth, -100 = all killed)
Conditions: 10 µM unless noted
The panel holds about 83,000 compounds, 20% with a hit somewhere; the sample as a whole holds those more often. The source made the active and inactive calls. The calls were made as follows: active = growth percent below 10; inactive = the rest.
Items are presented alongside their recorded growth.

INSERT INTO assay_data (molecule, assay_result) VALUES
  ('CCC(=C(c1ccc(OCCN(CC)CC)cc1)c1ccc(OCCN(CC)CC)cc1)c1ccc(Cl)cc1', '68.7% (inactive)'),
  ('C#CCOc1cc(/C=N/Nc2nc(-c3ccc(OC)cc3)cs2)ccc1O', '58.8% (inactive)'),
  ('Cn1ccnc1C(=O)/C=C/c1ccc(C(=O)Nc2ccccc2F)cc1', '27.4% (inactive)');

INPUT: Name the reported growth value associated with the molecule C#CCOc1ccc(C2=NN(CCCC)C3N=C(Cl)c4ncn(CCCC)c4N23)cc1OCC#C (stereo not given)
OUTPUT: 86.9% (inactive)

INPUT: Please answer likewise for COc1ccc(/C=C\c2cc(OC)c(OC)c(OC)c2)cc1OCC(=O)Nc1nc2ccccc2s1
OUTPUT: 23.5% (inactive)

INPUT: Please answer likewise for COc1cccc(C2C3=C(COC3=O)N(CCO)c3cc4c(cc32)OCCO4)c1 (stereo not given)
OUTPUT: 12.5% (inactive)

INPUT: Please answer likewise for COC(=O)c1nc(-c2ccc(C)cc2)oc1N1CCOCC1
OUTPUT: 106% (inactive)

INPUT: Please answer likewise for O=C(CNc1ncco1)Nc1ccc(S(=O)(=O)c2ccc(NC(=O)CNc3ncco3)cc2)cc1
OUTPUT: 4.33% (active)

INPUT: Please answer likewise for Cc1nc2cccc(NCc3ccc(C(=O)NO)cc3)c2c(=O)n1-c1ccccc1
OUTPUT: -16.8% (active)

INPUT: Please answer likewise for CC(=O)Cc1nsc(NC(=O)c2cc(-c3cc(Cl)ccc3Cl)oc2C)n1
OUTPUT: 99.5% (inactive)

###

Tested on: OVCAR-3 ovarian
Assay: NCI-60 one-dose screen, 48 h (100 = growth as untreated, 0 = no growth, -100 = all killed)
Conditions: 10 µM unless noted
About 83,000 compounds went through this panel and 20% of them were active in at least one assay; those are over-represented in the sample as a whole.
MEASURED_PROPERTY: growth (%)
Number in %, nothing else.

Examples from the recorded data:
INSERT INTO results (molecule, system_tested, units_of_measure, assay_result) VALUES
  ('O=C(NCCN1CCOCC1)c1cncnc1Nc1ccc2c(ccn2Cc2ccccn2)c1', 'OVCAR-3 ovarian', '%', 113),
  ('CCOC(=O)c1ccc2c(c1)c1c(C)c3cnccc3c(C)c1n2C', 'OVCAR-3 ovarian', '%', -47.5),
  ('O=C1N/C(=N/N=C(c2ccccc2)c2ccccc2)S/C1=C\c1ccc(Br)cc1', 'OVCAR-3 ovarian', '%', 102),
  ('COc1ccc(/C=C/C(=O)c2ccc(-n3cc(CN4CCN(c5cc6c(cc5F)c(=O)c(C(=O)O)cn6C5CC5)CC4)nn3)cc2)cc1', 'OVCAR-3 ovarian', '%', 39.3),
  ('C=CCNc1ccc2c3c(cccc13)C(=O)N(CC=C)C2=O', 'OVCAR-3 ovarian', '%', 107),
  ('COc1cccc(-c2cc(-c3ccc(Nc4nc(Nc5ccc(Cl)cc5)nc(Nc5ccc(Cl)cc5)n4)cc3)nc(N)c2C#N)c1', 'OVCAR-3 ovarian', '%', -52.7);

INPUT: Name the reported growth value associated with the molecule CN(C)CC1C(=O)O[C@H]2[C@H]1CC/C(COC(=O)NCc1ccc(Cn3c(=O)sn(CCCI)c3=O)cc1)=C\CC[C@@]1(C)O[C@@H]21 (stereo not given in full)
OUTPUT: -96.4

INPUT: Please answer likewise for COc1ccc(C(=O)C2OC3=C(C(=O)CC(C)(C)C3)C2c2cccc(Oc3ccccc3)c2)cc1 (stereo not given)
OUTPUT: 103

INPUT: Please answer likewise for Brc1ccc(-c2nn(-c3ccccc3)cc2-c2nn[nH]n2)s1
OUTPUT: 96.5

INPUT: Please answer likewise for COc1ccc(-c2ccc(-c3ccc(C(=N)N)nc3)s2)cc1
OUTPUT: -87.1

INPUT: Please answer likewise for COc1ccc2c(O)cc3c(c2c1)[C@H](CCl)CN3C(=O)c1cc2cc(NC(=O)CCN3CCOCC3)ccc2[se]1
OUTPUT: -7.3

INPUT: Please answer likewise for Cn1cc(-c2nc(-c3c[nH]c4ccncc34)cs2)c2cc(F)ccc21
OUTPUT: -94.7

INPUT: Please answer likewise for CCCCC/C=C/CCC(=O)N[C@H]1[C@H](Oc2c3cc4cc2Oc2ccc(cc2Cl)[C@@H](O[C@@H]2O[C@H](CO)[C@@H](O)[C@H](O)[C@H]2NC(C)=O)[C@@H]2NC(=O)[C@H](NC(=O)[C@@H]4NC(=O)[C@H]4NC(=O)[C@@H](Cc5ccc(c(Cl)c5)O3)NC(=O)[C@@H](N)c3ccc(O)c(c3)Oc3cc(O)cc4c3)c3ccc(O)c(c3)-c3c(O[C@H]4O[C@H](CO)[C@@H](O)[C@H](O)[C@@H]4O)cc(O)cc3[C@H](C(=O)O)NC2=O)O[C@H](CO)[C@H](O)[C@@H]1O
OUTPUT: 104

INPUT: Please answer likewise for COc1cccc(CNc2nnc(C)c(C)n2)c1O
OUTPUT: 110

INPUT: Please answer likewise for Nc1nc(Nc2ccc([N+](=O)[O-])cc2O)nc(C(Cl)(Cl)Cl)n1
OUTPUT: 55

INPUT: Please answer likewise for Cc1ccccc1NC(=O)Cn1cc(CN2CCN(c3ccnc4cc(Cl)ccc34)CC2)nn1
OUTPUT: 105

INPUT: Please answer likewise for CC(C)(C)n1cc(-c2ccnc(NCCNS(=O)(=O)c3ccc(C(F)(F)F)cc3)c2)c(-c2ccccc2)n1
OUTPUT: 94.5

INPUT: Please answer likewise for COc1ccc(/C=N/NC(=O)Cn2nnc3ccccc32)cc1
OUTPUT: 95

INPUT: Please answer likewise for C#CCOc1cccc(-c2ncnc3cc(NC(=O)CCl)ccc23)c1
OUTPUT: -78.2

INPUT: Please answer likewise for CCN1C(=O)N(CC)C2C1NN=c1s/c(=C\c3ccc(F)cc3)c(=O)n12 (stereo not given)
OUTPUT: -25.9

INPUT: Please answer likewise for O=S(=O)(Nc1ccc(Br)cc1)c1ccc(-c2cnc(C3CC3)o2)cc1
OUTPUT: -7.12

INPUT: Please answer likewise for COC(=O)[C@@H](Cc1c[nH]c2ccccc12)NC[C@@H](O)CN1C(=O)/C(=C\c2cc(OC)c(OC)c(OC)c2)c2ccccc21
OUTPUT: 65.3

INPUT: Please answer likewise for CN1CCN(Cc2ccc(NC(=O)c3cncc(C#Cc4c(N)ncc5ccccc45)c3)cc2C(F)(F)F)CC1
OUTPUT: -78.4

INPUT: Please answer likewise for CCOC(=O)CC1C(CNC(=O)NC)OC(n2cnc3c(NC(=O)Nc4ccccc4)ncnc32)C1O[Si](C)(C)C(C)(C)C (stereo not given)
OUTPUT: 79.6

INPUT: Please answer likewise for O=[N+]([O-])c1ccc(N/N=C\c2cc(Cl)ccc2O)nc1
OUTPUT: 48.5
